Each recorded value in this set is attributed to PubChem BioAssay.

Experiment: drug combination growth inhibition, ovarian cancer – cell-based, oncology-focused library, rucaparib conditional, profiling panel (AID 1508598)
Details: patient-derived ovarian cancer cells, CellTiter-Glo viability, 144 h; at 5 µM; OCI-C5x cells; without rucaparib
Active and inactive are the calls of the source.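 How the source made its calls: active means normalized viability below 100% at a tested concentration; inactive means the rest.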
In this exercise, the only acceptable responses are active, inactive

[[record]]
compound = "CC1(O)CC(c2nc(-c3ccc4ccc(-c5ccccc5)nc4c3)c3c(N)nccn23)C1 (centres undefined)"
assigned_category = "inactive"

[[record]]
compound = "Nc1ccc(-c2ccc3ncc4ccc(=O)n(-c5cccc(C(F)(F)F)c5)c4c3c2)cn1"
assigned_category = "active"

[[record]]
compound = "Cn1cc(CNCC2CCN(c3ncc(C(=O)NO)cn3)CC2)c2ccccc21"
assigned_category = "active"

[[record]]
compound = "Cn1cncc1[C@@](N)(c1ccc(Cl)cc1)c1ccc2c(c1)c(-c1cccc(Cl)c1)cc(=O)n2C"
assigned_category = "active"

[[record]]
compound = "Cc1cc(Nc2cc(N3CCN(C)CC3)nc(/C=C/c3ccccc3)n2)n[nH]1"
assigned_category = "active"


Look up the recorded call for Cc1cc(N2CCOCC2)cc2[nH]c(-c3c(NC[C@@H](O)c4cccc(Cl)c4)cc[nH]c3=O)nc12 in this test. active

Look up the recorded call for CC1COC2(CCN(c3nc(=O)c4cc(C(F)(F)F)cc([N+](=O)[O-])c4s3)CC2)O1 (centres undefined) in this test. inactive

Look up the recorded call for COc1ccc(S(=O)(=O)Nc2cccnc2Nc2ccc(O)cc2)cc1 in this test. active

Look up the recorded call for O=C(O)CCC1CCC(c2cc(F)ccc2F)(S(=O)(=O)c2ccc(Cl)cc2)CC1 (centres undefined) in this test. inactive

###

Experiment: drug combination growth inhibition, ovarian cancer – cell-based, oncology-focused library, rucaparib conditional, profiling panel (AID 1508598)
Conditions: patient-derived ovarian cancer cells, CellTiter-Glo viability, 144 h; at 0.00122 µM; OCI-C5x cells; without rucaparib
The source made the active and inactive calls.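 How the source made its calls: active means normalized viability below 100% at a tested concentration; inactive means the rest.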
In this exercise, the only acceptable responses are 1 = active, -1 = inactive

Observe how each entry below is paired with its result.
[[record]]
compound = "CNc1nc(-c2ccc3c(N)n[nH]c3c2)cc(N2C[C@@H](C(=O)NC3CCCCC3)CC[C@H]2C)n1"
assigned_category = -1

[[record]]
compound = "CN1CCN(c2cccc(Nc3nc4c(-c5ccc(S(C)(=O)=O)cc5)cccn4n3)c2)CC1"
assigned_category = -1

[[record]]
compound = "C=CC(=O)Nc1cccc(Oc2nc(Nc3ccc(N4CCN(C)CC4)cc3OC)ncc2Cl)c1"
assigned_category = -1

[[record]]
compound = "COc1ccc(-c2ccc3c(N4CCOCC4)nc(N4C[C@@H](C)O[C@@H](C)C4)nc3n2)cc1CO"
assigned_category = -1

[[record]]
compound = "NC(=O)C1CCCc2c1[nH]c1ccc(Cl)cc21 (centres undefined)"
assigned_category = -1

[[record]]
compound = "CO[C@@H](C(=O)N1Cc2[nH]nc(NC(=O)c3ccc(N4CCN(C)CC4)cc3)c2C1)c1ccccc1"
assigned_category = -1


Look up the recorded call for CS(=O)(=O)N1CCc2c(-c3cnc(N)nc3)nc(N3CCOCC3)nc21 in this test. -1

Look up the recorded call for CC1(O)CC(c2nc(-c3ccc4ccc(-c5ccccc5)nc4c3)c3c(N)nccn23)C1 (centres undefined) in this test. -1

Look up the recorded call for Fc1cc(-c2cccc3ncc(-c4cnn(C5CCNCC5)c4)nc23)cc(F)c1CN1CCOCC1 in this test. -1

Look up the recorded call for COc1ncc(-c2ccc3nccc(-c4ccnnc4)c3c2)cc1NS(=O)(=O)c1ccc(F)cc1F in this test. 1

Look up the recorded call for C=C(c1ccc(C(=O)O)cc1)c1cc2c(cc1C)C(C)(C)CCC2(C)C in this test. -1

Look up the recorded call for CCNC(=O)c1noc(-c2cc(C(C)C)c(O)cc2O)c1-c1ccc(CN2CCOCC2)cc1 in this test. -1

Look up the recorded call for CC(C)c1ccccc1Cc1cc(C(=O)Nc2ccc(S(=O)(=O)c3ccccc3C(C)(C)C)cc2)c(O)c(O)c1O in this test. -1

Look up the recorded call for CCCS(=O)(=O)Nc1ccc(F)c(C(=O)c2c[nH]c3ncc(-c4ccc(Cl)cc4)cc23)c1F in this test. -1

###

Assay: JHH-DIPG-1 glioma cell viability, MIPE5.0 library, CellTiter-Glo luminescence, qHTS (AID 1347067);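 further: cells exposed to compound for 48 hours before readout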
Conditions: JHH-DIPG-1 glioma viability, CellTiter-Glo ATP luminescence
Inconclusive results are not listed. Activity calls are given as the source filed them. No cut-off is given here; in the data, nearly all actives have AC50 up to about 26 µM.
In this exercise, the only acceptable responses are yes (active), no (inactive)

Observe how each entry below is paired with its result.
[[record]]
compound = "COc1cccc2cc(-c3nc(C4CCC(C(=O)O)CC4)n4ncnc(N)c34)[nH]c12 (stereo not given)"
assigned_category = "yes"

[[record]]
compound = "c1cc(OCCN2CCCCC2)cc(-c2n[nH]c3ccc(-c4ncn[nH]4)cc23)c1"
assigned_category = "no"

[[record]]
compound = "CNC(=O)Cn1cc(-c2ccc3c(c2)C(F)CC32NC(=O)N(CC(=O)N(Cc3ccc(F)cc3)C(C)C(F)(F)F)C2=O)cn1 (stereo not given)"
assigned_category = "no"

[[record]]
compound = "CCCc1cc(C(=O)N[C@H](Cc2ccc(-c3cccc(OC(F)(F)F)c3)nc2)C(=O)N[C@@H]2CCNC2)sc1C"
assigned_category = "yes"


Let us examine a further case.
Look up the recorded call for Cc1c(Cn2c(C)nc3c(C(=O)O)cc(N4CCOCC4)cc32)cccc1C(F)(F)F in this test. no

###

Assay: viability loss in pontine glioma line – cell-based, SU-DIPG-XIII, MIPE4.0, CellTiter-Glo, qHTS, dose response (AID 1347061);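 further: cells exposed to compound for 48 hours before readout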
Conditions: CellTiter-Glo ATP luminescence
Results filed as inconclusive are left out. Calls of active or inactive are those of the source. The limit is not given here; nearly all actives have AC50 up to about 37 µM.
In this exercise, the only acceptable responses are True for active, False for inactive

[[record]]
chemical_string = "CO[C@H]1/C=C/O[C@@]2(C)Oc3c(C)c(O)c4c(O)c(c5c(nc6cc(C)ccn65)c4c3C2=O)NC(=O)/C(C)=C\\C=C\\[C@H](C)[C@H](O)[C@@H](C)[C@@H](O)[C@@H](C)[C@H](OC(C)=O)[C@@H]1C"
assigned_category = "False"

[[record]]
chemical_string = "CCc1cc(-c2n[nH]c(C)c2-c2ccc3c(c2)OCCO3)c(O)cc1O"
assigned_category = "True"

[[record]]
chemical_string = "C[C@@H]1CCN(C(=O)CC#N)C[C@@H]1N(C)c1ncnc2[nH]ccc12"
assigned_category = "False"


Let us examine a further case.
Look up the recorded call for N#CC1(c2cccc(C(=O)Nc3cc(Oc4ccc5nc(NC(=O)C6CC6)sc5n4)ccc3F)c2Cl)CC1 in this test. True

###

Assay: growth inhibition, single agent and combos, cell-based, chromothripsis tumors, cisplatin or BGB combos (AID 1671450);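 further: cells exposed to compound for four days; 0% = vehicle DMSO and 100% = cell killing by high DMSO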
Settings: HDN33 neuroblastoma cells, measured here: with cisplatin IC20 combination, at 0.5 µM, stronger effect = higher value
Please use yes whenever inhibition is not below 20%, and no whenever it is.

[[record]]
chemical_string = "Nc1nc(OCc2cc(Br)cs2)c2[nH]cnc2n1"
assigned_category = "no"

[[record]]
chemical_string = "O=c1cc(N2CCOCC2)oc2c(-c3cccc4c3sc3ccccc34)cccc12"
assigned_category = "no"

[[record]]
chemical_string = "O=C(COc1cccc2c(=O)[nH]ccc12)c1ccccc1"
assigned_category = "no"

[[record]]
chemical_string = "C=C1[C@H](CO)[C@@H](O)C[C@@H]1n1cnc2c(=O)[nH]c(N)nc21"
assigned_category = "no"

[[record]]
chemical_string = "CS(=O)(=O)c1ccc(-c2nnc(/C=C/c3nnc(-c4ccc(C#N)cc4)o3)n2-c2ccccc2Cl)nc1"
assigned_category = "yes"

[[record]]
chemical_string = "O=C(O)CO.[NH2-].[NH2-].[Pt+2]"
assigned_category = "yes"

[[record]]
chemical_string = "Cc1ccc([N+](=O)[O-])cc1S(=O)(=O)N(C)/N=C/c1cnc2ccc(Br)cn12"
assigned_category = "yes"

[[record]]
chemical_string = "Nc1ncnc2c1c(-c1cnc3[nH]ccc3c1)nn2C1CCCC1"
assigned_category = "yes"

[[record]]
chemical_string = "COc1cc2ncnc(-n3nc(-c4ccccn4)nc3N)c2cc1OC"
assigned_category = "no"


Let us examine a further case.
API: above_or_equal(metric=inhibition, cutoff=20%) for item O=c1cc(N2CCOCC2)oc2c1ccc1ccccc12 no

###

Assay: viability loss with induced miR-34 in A549 – imaging, A549 dox-inducible miR-34, nuclei and caspase counts, primary screen (AID 1347080)
Settings: A549 miR-34 inducible, Hoechst nuclei count, 48 h; measured here: total cells without miR-34 induction
Threshold check on cell count: strictly below 5000 is Criterion met; on or above 5000 is Criterion not met.

[[record]]
compound = "O=C(O)CCCCCC[C@@H]1C(=O)NC(=O)N1CCC(O)C1CCCCC1 (some centres undefined)"
assigned_category = "Criterion not met"

[[record]]
compound = "CCCn1c(=O)c2[nH]c(-c3ccccc3)nc2n(CCC)c1=O"
assigned_category = "Criterion met"

[[record]]
compound = "COc1cc([C@@H]2c3cc4c(cc3C(OC3OC5COC(C)OC5C(O)C3O)C3COC(=O)[C@@H]32)OCO4)cc(OC)c1O (some centres undefined)"
assigned_category = "Criterion met"

[[record]]
compound = "COC(=O)C1=C(C)NC(C)=C(C(=O)OCCCN2CCC(c3ccccc3)(c3ccccc3)CC2)[C@H]1c1cccc([N+](=O)[O-])c1"
assigned_category = "Criterion met"

[[record]]
compound = "CCCCC(C)(C)[C@H](O)/C=C/[C@H]1C=CC(=O)[C@@H]1CCCCCCC(=O)O"
assigned_category = "Criterion not met"

[[record]]
compound = "Cc1nc2c(O)cccc2c(=O)[nH]1"
assigned_category = "Criterion not met"

[[record]]
compound = "COc1ccc(COc2cc3oc(=O)c4cc(C(C)O)ccc4c3cc2OC)cc1 (centres undefined)"
assigned_category = "Criterion not met"

[[record]]
compound = "O=C(NOCC(O)CO)c1ccc(F)c(F)c1Nc1ccc(I)cc1F (centres undefined)"
assigned_category = "Criterion met"


Let us examine a further case.
Dear colleague, could you confirm whether cell count of CCCCC[C@@](C)(O)/C=C/[C@@H]1[C@@H](C/C=C\CCCC(=O)OC)[C@@H](O)C[C@H]1O falls below 5000? Thanks. Criterion not met
